This collection of values is drawn from patent US20240279176A1.

- Test system: Klebsiella pneumoniae ATCC BAA-2146
- assay_explanation: Checkerboard synergy assay in combination with Imipenem
- Format: cell-based
- test_settings: compound at 4 μg/mL; K. pneumoniae ATCC BAA-2146
assay_endpoint: Fold reduction in Imipenem MIC in the presence of compounds (μg/mL) 4 (fold)

- molecule: "COc1ccccc1-c1c(C(=O)O)[nH]c2c1CCc1ccccc1-2 [Example 35]"
  unit_abbrev: "fold"
  experimental_result: 2

[I] COc1ccc(F)cc1-c1c(C(=O)O)[nH]c2c1CCc1ccccc1-2 [Example 34]
[II] O=C(O)c1[nH]c2c(c1-c1cccc(F)c1F)CCc1ccccc1-2 [Example 47]
Input pair: I , II . Output: entry with lower Fold reduction in Imipenem MIC in the presence of compounds (μg/mL) 4. Give the label of your selection.
II

[I] Cc1cc(Cl)cc(-c2c(C(=O)O)[nH]c3c2CCc2ccccc2-3)c1 [Example 57]
[II] CC(C)(C)c1ccc(-c2c(C(=O)O)[nH]c3c2CCc2ccccc2-3)cc1 [Example 39]
Between I and II , which one has the lower reported Fold reduction in Imipenem MIC in the presence of compounds (μg/mL) 4 value? Provide the label of your selected option as the answer.
II
